Biological target: CHK2 (Homo sapiens, UniProt O96017)
Construct: purchased Caliper Life Sciences
Sequence (O96017 whole entry, species assumed): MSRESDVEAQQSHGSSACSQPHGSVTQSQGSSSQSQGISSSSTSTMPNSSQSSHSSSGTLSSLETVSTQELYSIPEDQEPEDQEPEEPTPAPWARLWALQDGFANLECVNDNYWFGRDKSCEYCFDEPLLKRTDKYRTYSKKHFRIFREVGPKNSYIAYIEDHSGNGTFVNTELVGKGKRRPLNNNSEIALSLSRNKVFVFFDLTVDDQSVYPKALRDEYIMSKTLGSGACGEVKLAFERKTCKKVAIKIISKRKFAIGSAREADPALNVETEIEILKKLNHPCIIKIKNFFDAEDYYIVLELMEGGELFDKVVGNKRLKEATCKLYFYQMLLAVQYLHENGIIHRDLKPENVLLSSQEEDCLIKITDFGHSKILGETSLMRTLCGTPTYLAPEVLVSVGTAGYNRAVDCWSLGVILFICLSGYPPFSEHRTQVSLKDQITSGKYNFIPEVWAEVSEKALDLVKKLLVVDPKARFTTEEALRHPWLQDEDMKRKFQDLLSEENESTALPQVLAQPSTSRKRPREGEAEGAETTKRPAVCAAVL
Test: Desktop Profiler kinase panel, CHK2
Assay type: biochemical
Settings: 10 micromolar concentration of the compound; read-out: Percent Inhibition CHK2
# inhibition at 10 µM per entry

Below, 4 molecules whose answers are already recorded.
O=c1[nH]c2nccc(Nc3ccccc3)c2c2ccccc12: 50 to 70%
COc1ccc(CCNc2ccc3c(=O)[nH]c4ncccc4c3c2)cc1: 70 to 90%
COCCNc1ccc2c(=O)[nH]c3ncccc3c2c1: 50 to 70%
O=C(Nc1ccc(Nc2ccnc3[nH]c(=O)c4ccccc4c23)cc1)c1ccccc1: > 90%

Request: Which inhibition at 10 µM is reported for this molecule? `CC(=O)Nc1ccc(Oc2ccc3c(=O)[nH]c4ncccc4c3c2)cc1`
Result: 70 to 90%

Request: What inhibition at 10 µM value was documented for this molecule, `Clc1nc2nccc(Nc3ccccc3)c2c2ccccc12` ?
Result: 50 to 70%

Request: Could you share which inhibition at 10 µM value was measured for `O=c1[nH]c2ncccc2c2cc(N3CCOCC3)ccc12` ?
Result: 50 to 70%
